target: HIV-1 protease (Human immunodeficiency virus type 1 group M subtype B, UniProt P04585); experiment: biochemical; conditions: Table I; Dose 0.370 μM; read-out: Protease % Inhib
Structures can show the parent of a compound that is named as a salt.
experimental_endpoint: inhibition at 0.37 µM (%)
// note: answer is a bare numeric in %

Fill in the blank: the reported inhibition at 0.37 µM of CCCC1(CCC)CC(O)=C(C(c2cccc(NS(=O)(=O)c3cn(C)cn3)c2)C2CC2)C(=O)O1 (stereo not drawn) [Example 48] is ____. 104

Consider the compound shown here: N#Cc1ccc(S(=O)(=O)Cc2cccc(C(c3c(O)c4c(oc3=O)CCCCCC4)C3CC3)c2)cc1 (stereo not drawn) [Example 11] What is its recorded inhibition at 0.37 µM? 95.3

What value of inhibition at 0.37 µM has been reported for the following compound? COCCOCCOCCOc1ccc2c(O)c(C(c3cccc(NS(=O)(=O)c4cccc5cccnc45)c3)C3CC3)c(=O)oc2c1 (stereo not drawn) [Example 153] 91.1

Endpoint output: inhibition at 0.37 µM of CN(c1cccc(C(c2c(O)c3c(oc2=O)CCCCCC3)C2CC2)c1)S(=O)(=O)c1ccc(F)cc1 (stereo not drawn) [Example 193] . Value? 40.3

Which value of inhibition at 0.37 µM has been reported for COCCOCCCc1cc(O)c(C(c2cccc(NS(=O)(=O)c3cn(C)cn3)c2)C2CC2)c(=O)o1 (stereo not drawn) [Example 104] in the records? 61.7

Given the compound CCC(CCOCCOC)c1cc(O)c(C(c2cccc(NS(=O)(=O)c3cn(C)cn3)c2)C2CC2)c(=O)o1 (stereo not drawn) [Example 105] , what is its reported inhibition at 0.37 µM? 115

Which inhibition at 0.37 µM value is on record for CC[C@H](Cc1ccccc1)c1cc(O)c(C(c2cccc(NS(=O)(=O)c3cn(C)cn3)c2)C2CC2)c(=O)o1 (single isomer, unassigned) [Example 137] ? 91.5

Look up inhibition at 0.37 µM for this compound: CCCC1(CCC)CC(O)=C(C(CC)c2cccc(NS(=O)(=O)c3ccc(C#N)cn3)c2)C(=O)O1 (stereo not drawn) [Example 262] 96.6

# input compound: CC[C@H](Cc1ccccc1)c1cc(O)c(C(c2cccc(NS(=O)(=O)c3nccn3C)c2)C2CC2)c(=O)o1 (single isomer, unassigned) [Example 143] ; wanted: its inhibition at 0.37 µM 97.7

Looking for the measured inhibition at 0.37 µM of CCCC1(CCC)CC(O)=C(C(c2cccc(NS(=O)(=O)c3ccc(F)cc3)c2)C2CC2)C(=O)O1 (stereo not drawn) [Example 51] , can you help? 104

Data request, read-out inhibition at 0.37 µM, for CC[C@H](Cc1ccccc1)c1cc(O)c(C(c2cccc(NS(=O)(=O)c3ccc(C#N)cc3)c2)C2CC2)c(=O)o1 (single isomer, unassigned) [Example 148] 91.7

Looking for the measured inhibition at 0.37 µM of CCCC1(CCC)CC(O)=C(C(c2cccc(NS(=O)(=O)c3cn(C)cn3)c2)C2CC2)C(=O)O1 (single isomer, unassigned) [Example 56] , can you help? 108

Form field: reported inhibition at 0.37 µM of CCCC1(CCC)CC(O)=C(C(CC)c2cccc(NS(=O)(=O)c3ccc(C#N)cc3)c2)C(=O)O1 (stereo not drawn) [Example 46] 99.2

Would you mind telling me what inhibition at 0.37 µM value was observed for CCC(Cc1ccccc1)c1cc(O)c(C(c2cccc(NS(=O)(=O)c3cn(C)cn3)c2)C2CC2)c(=O)o1 (stereo not drawn) [Example 136] ? 85.7

Dear colleague, I am looking for the recorded inhibition at 0.37 µM of the following compound: CN(c1cccc(C(c2c(O)c3c(oc2=O)CCCCCC3)C2CC2)c1)S(=O)(=O)c1ccc(C#N)cc1 (stereo not drawn) [Example 192] 76.3

Would you kindly share the measured inhibition at 0.37 µM for O=c1oc(C(CC2CC2)CC2CC2)cc(O)c1C(c1cccc(NS(=O)(=O)c2ccccn2)c1)C1CC1 (stereo not drawn) [Example 99] ? 102

Quick check: inhibition at 0.37 µM of CCC(CC1CCOCC1)c1cc(O)c(C(c2cccc(NS(=O)(=O)c3nccn3C)c2)C2CC2)c(=O)o1 (stereo not drawn) [Example 145] ? 89.8

What does the data say about its inhibition at 0.37 µM? Entry: O=c1oc2c(c(O)c1C(c1cccc(CS(=O)(=O)c3ccc(F)cc3)c1)C1CC1)CCCCCC2 (stereo not drawn) [Example 12] 87.2

Which inhibition at 0.37 µM value is on record for CN(c1cccc(C(c2c(O)c3c(oc2=O)CCCCCC3)C2CC2)c1)S(=O)(=O)c1cn(C)cn1 (stereo not drawn) [Example 195] ? 85.1

// lookup inhibition at 0.37 µM for CCCC1(CCC)CC(O)=C(C(CC)c2cccc(NS(=O)(=O)c3cccc4cccnc34)c2)C(=O)O1 (single isomer, unassigned) [Example 52] 87.3

Please report the recorded inhibition at 0.37 µM for CCC(CCNC(=O)CCCCCCC(=O)N(C)CCS(=O)(=O)O)c1cc(O)c(C(c2cccc(NS(=O)(=O)c3cn(C)cn3)c2)C2CC2)c(=O)o1 (stereo not drawn) [Example 110, monosodium salt] . 82.7

Which inhibition at 0.37 µM is listed for O=c1oc(C(CC2CC2)CC2CC2)cc(O)c1C(c1cccc(NS(=O)(=O)c2ncc[nH]2)c1)C1CC1 (stereo not drawn) [Example 102] ? 92.7

Which inhibition at 0.37 µM reading was recorded for the compound CC(C)(C)C(C1=C(O)CC(CCC2CC2)(CCC2CC2)OC1=O)c1cccc(NS(=O)(=O)c2ccc(C#N)cn2)c1 (stereo not drawn) [Example 265] ? 56.3

Bench note: what inhibition at 0.37 µM did CCC(Cc1ccccc1)c1cc(O)c(C(c2cccc(NS(=O)(=O)c3ccc([N+](=O)[O-])cc3)c2)C2CC2)c(=O)o1 (stereo not drawn) [Example 150] show? 96.5

// returns reported inhibition at 0.37 µM for input O=c1oc2c(c(O)c1C(c1cccc(NS(=O)(=O)c3ccccn3)c1)C1CC1)CCCCCC2 (stereo not drawn) [Example 239] 96.6

Which value of inhibition at 0.37 µM has been reported for CCCC1(CCC)CC(O)=C(C(c2cccc(NS(=O)(=O)c3cccc4cccnc34)c2)C2CC2)C(=O)O1 (stereo not drawn) [Example 49] in the records? 120

inhibition at 0.37 µM lookup needed for CC[C@@H](Cc1ccccc1)c1cc(O)c(C(c2cccc(NS(=O)(=O)c3cn(C)cn3)c2)C2CC2)c(=O)o1 (single isomer, unassigned) [Example 139] , thanks. 101

###

Biological target: HIV-1 protease (Human immunodeficiency virus type 1 group M subtype B)
Experiment: biochemical
Settings: Table II; enzyme HIV-1; DOSE 30.000 (unit not given)
Procedure: The HIV protease screening assay is based on fluorescently labeled substrate which can be resolved from nonlabeled cleavage product using special beads coated with streptavidin. […] The labeled cleavage product is separated from the unreacted substrate via filtration and is read on the Idexx screen machine. The data are analyzed by appropriate computer algorithms to ascertain percent inhibition values.
experimental_endpoint: PROTEASE % INHIB. (%)
Give the quantity in %, number only.

Given the entry CC(C)(C)C(C1=C(O)CC(CCc2ccccc2)(CCc2ccccc2)OC1=O)c1cccc(NS(=O)(=O)c2ccc(N)cn2)c1 (single isomer, unassigned) [Example 356] , what PROTEASE % INHIB. was observed with HIV-1 protease (Human immunodeficiency virus type 1 group M subtype B)? 95.16

Missing value: PROTEASE % INHIB., HIV-1 protease (Human immunodeficiency virus type 1 group M subtype B), entry CCC(C1=C(O)C2CCCCC2OC1=O)c1cccc(NS(=O)(=O)c2ccc(C#N)cn2)c1 (centres unmarked) [Example 370] . Fill in? 98.14

Form field: PROTEASE % INHIB. recorded for CCCC1(CCc2ccccc2)CC(O)=C(C(c2cccc(NS(=O)(=O)c3cn(C)cn3)c2)C(C)(C)C)C(=O)O1 (single isomer, unassigned) [Example 307] with HIV-1 protease (Human immunodeficiency virus type 1 group M subtype B) (enter value) 69.74

# query: PROTEASE % INHIB. | item N#Cc1ccc(S(=O)(=O)Nc2cccc(CC3=C(O)CC(CCc4ccccc4)(CCc4ccccc4)OC3=O)c2)nc1 [Example 353] | system: HIV-1 protease (Human immunodeficiency virus type 1 group M subtype B) 43.93

What value of PROTEASE % INHIB. on HIV-1 protease (Human immunodeficiency virus type 1 group M subtype B) does CCCC1(CCc2ccccc2)CC(O)=C(C(c2cccc(NS(=O)(=O)c3ccc(C(F)(F)F)cn3)c2)C(C)(C)C)C(=O)O1 (centres unmarked) [Example 293] have? 92.01

Notebook: pull reported PROTEASE % INHIB. for HIV-1 protease (Human immunodeficiency virus type 1 group M subtype B), entry CCCC1(CCC)CC(O)=C(C(CC)c2cccc(NS(=O)(=O)c3ccc(C(N)=O)cn3)c2)C(=O)O1 (centres unmarked) [Example 334] 96.3

Provide the documented PROTEASE % INHIB. with HIV-1 protease (Human immunodeficiency virus type 1 group M subtype B) as the system for CC(C)(C)C(C1=C(O)C2CCCCCCC2OC1=O)c1cccc(NS(=O)(=O)c2ccc(C#N)cn2)c1 (centres unmarked) [Example 373] 89.53

Find the measured PROTEASE % INHIB.: item CCCC1(CCC)CC(O)=C(C(c2cccc(NS(=O)(=O)c3cn(C)cn3)c2)C(C)(C)C)C(=O)O1 (single isomer, unassigned) [Example 318] , target or system HIV-1 protease (Human immunodeficiency virus type 1 group M subtype B). 82.83

Lab note: need PROTEASE % INHIB. with HIV-1 protease (Human immunodeficiency virus type 1 group M subtype B) for entry CCCC1(CCc2ccccc2)CC(O)=C(C(c2cccc(NS(=O)(=O)c3ccc(C#N)cn3)c2)C2CC2)C(=O)O1 (centres unmarked) [Example 311] , please look it up. 77.63

Record CCCC1(CCc2ccc(F)cc2)CC(O)=C(C(c2cccc(NS(=O)(=O)c3cccc4cccnc34)c2)C(C)(C)C)C(=O)O1 (centres unmarked) [Example 329] : what is its PROTEASE % INHIB. with HIV-1 protease (Human immunodeficiency virus type 1 group M subtype B)? 96.35

Form field - read-out: PROTEASE % INHIB.; system: HIV-1 protease (Human immunodeficiency virus type 1 group M subtype B); submitted item: Cn1cnc(S(=O)(=O)Nc2cccc(C(C3=C(O)CC(CCc4ccccc4)(CCC(F)(F)F)OC3=O)C(C)(C)C)c2)c1 (single isomer, unassigned) [Example 276] 87.6

Value wanted: PROTEASE % INHIB. (HIV-1 protease (Human immunodeficiency virus type 1 group M subtype B)) of entry CCC[C@@]1(CCc2ccc(F)cc2)CC(O)=C([C@H](c2cccc(NS(=O)(=O)c3cn(C)cn3)c2)C(C)(C)C)C(=O)O1 (single isomer, unassigned) [Example 351] 90.55

Give HIV-1 protease (Human immunodeficiency virus type 1 group M subtype B) PROTEASE % INHIB. for CCC[C@@]1(CCc2ccccc2)CC(O)=C([C@@H](c2cccc(NS(=O)(=O)c3cn(C)cn3)c2)C(C)(C)C)C(=O)O1 (single isomer, unassigned) [Example 308] 96.28

Field: PROTEASE % INHIB. (HIV-1 protease (Human immunodeficiency virus type 1 group M subtype B)). Entry: CCC[C@@]1(CCc2ccccc2)CC(O)=C([C@@H](c2cccc(NS(=O)(=O)c3cn(C)cn3)c2)C(C)(C)C)C(=O)O1 (single isomer, unassigned) [Example 310] 110.91

Tell me reported PROTEASE % INHIB. for CCC[C@@]1(CCc2ccc(F)cc2)CC(O)=C([C@@H](c2cccc(NS(=O)(=O)c3cn(C)cn3)c2)C(C)(C)C)C(=O)O1 (single isomer, unassigned) [Example 349] , tested with HIV-1 protease (Human immunodeficiency virus type 1 group M subtype B). 98.24

Which PROTEASE % INHIB. is reported with HIV-1 protease (Human immunodeficiency virus type 1 group M subtype B) for this entry: CCC[C@]1(CCc2ccc(F)cc2)CC(O)=C([C@H](c2cccc(NS(=O)(=O)c3ccc(C#N)cn3)c2)C(C)(C)C)C(=O)O1 (single isomer, unassigned) [Example 348] ? 84.67

Request: PROTEASE % INHIB., test system HIV-1 protease (Human immunodeficiency virus type 1 group M subtype B), entry CCC(C1=C(O)CC(CCc2ccccc2)(CCc2ccccc2)OC1=O)c1cccc(NS(=O)(=O)c2ccc(C#N)cn2)c1 (centres unmarked) [Example 331] 93.3

GET /values?readout=PROTEASE % INHIB.&system=HIV-1 protease (Human immunodeficiency virus type 1 group M subtype B)&item= CCC[C@@]1(CCc2ccccc2)CC(O)=C([C@H](CC)c2cccc(NS(=O)(=O)c3ccc(N)cn3)c2)C(=O)O1 (single isomer, unassigned) [Example 315] 106.4

Find the measured PROTEASE % INHIB.: item Cn1cnc(S(=O)(=O)Nc2cccc(C(C3=C(O)CC(CCc4ccccc4)(CCC(F)(F)F)OC3=O)C(C)(C)C)c2)c1 (single isomer, unassigned) [Example 270] , target or system HIV-1 protease (Human immunodeficiency virus type 1 group M subtype B). 82.67

Enter reported PROTEASE % INHIB. observed with HIV-1 protease (Human immunodeficiency virus type 1 group M subtype B) for CCCC1(CCC)CC(O)=C(C(CC)c2cccc(NS(=O)(=O)c3ccc(C(F)(F)F)cn3)c2)C(=O)O1 (centres unmarked) [Example 280] 76.85

Field: PROTEASE % INHIB. (HIV-1 protease (Human immunodeficiency virus type 1 group M subtype B)). Entry: CCCC1(CCC)CC(O)=C(C(c2cccc(NS(=O)(=O)c3ccc(C(F)(F)F)cn3)c2)C(C)(C)C)C(=O)O1 (single isomer, unassigned) [Example 285] 86.84

Quick check: PROTEASE % INHIB. on HIV-1 protease (Human immunodeficiency virus type 1 group M subtype B), item CCC[C@@]1(CCc2ccc(F)cc2)CC(O)=C([C@@H](c2cccc(NS(=O)(=O)c3ccc(C#N)cn3)c2)C(C)(C)C)C(=O)O1 (single isomer, unassigned) [Example 345] ? 84.56

Record Cn1cnc(S(=O)(=O)Nc2cccc(C(C3=C(O)CC(CCc4ccccc4)(CCC(F)(F)F)OC3=O)C(C)(C)C)c2)c1 (single isomer, unassigned) [Example 273] : what is its PROTEASE % INHIB. with HIV-1 protease (Human immunodeficiency virus type 1 group M subtype B)? 91
